Data origin, for the record: PubChem BioAssay AID256

tested on: CD2F1 mice, L1210 leukemia ip, survival T/C; assay: NCI In Vivo Anticancer Drug Screen. Data for tumor model L1210 Leukemia (intraperitoneal) in CD2F1 (CDF1) mice; conditions: endpoint: mean survival time; dose: 200.0 mg/kg/injection; schedule: Q04DX003 (ip); vehicle: saline; higher = longer survival
Toxic doses and inconclusive results are not listed.
measured_attribute: T/C

[[record]]
compound = "CCC/C=N\\O"
result = "93 % of control"

[[record]]
compound = "O=S(=O)(Cl)c1ccc(F)cc1"
result = "102 % of control"

[[record]]
compound = "CC(=O)c1ccc[n+](C)c1"
result = "104 % of control"

[[record]]
compound = "CN1C(C(=O)O)CCC1C(=O)O (stereo not drawn)"
result = "98 % of control"

[[record]]
compound = "CCNc1nc(NC(C)C)nc(SC)n1"
result = "101 % of control"

[[record]]
compound = "CCCCS(=O)(=O)OCCCCOS(=O)(=O)CCCC"
result = "95 % of control"

[[record]]
compound = "CCC(=O)O[C@H]1CC[C@H]2[C@@H]3C[C@H](F)C4=CC(=O)CC[C@]4(C)[C@H]3CC[C@]12C"
result = "95 % of control"

[[record]]
compound = "CCCCCCC(C)c1cc(C)c(O)c(CN(C)C)c1 (stereo not drawn)"
result = "95 % of control"

[[record]]
compound = "CC1(C)OC1(C)C"
result = "104 % of control"

[[record]]
compound = "O=[N+]([O-])c1ccc(N/N=C/c2cccc(CO)c2)c([N+](=O)[O-])c1"
result = "88 % of control"

[[record]]
compound = "Cc1ccccc1N1OS(=O)(=O)CC1(C#N)c1ccccc1 (stereo not drawn)"
result = "101 % of control"

[[record]]
compound = "NC(=O)NC1OC(CO)C(O)C(O)C1O (stereo not drawn)"
result = "100 % of control"

[[record]]
compound = "CCOC(=O)C(C)C(=O)O (stereo not drawn)"
result = "96 % of control"

